Tested on: cyclin K–eGFP degradation reporter
Assay: Cyclin K reporter stability analysis (dual-color cyclin K–eGFP reporter)
Type: cell-based, human
Details: source data sheet correlations; read-out: DC50
For each record, write down the corresponding DC50.
One number for each entry, in nM.

# batch size: 4; output DC50 per entry
1. Cc1nn(C)c(CNc2nc(NCc3ccc(-c4ccccn4)cc3)c3ncn(C(C)C)c3n2)c1S(N)(=O)=O
2. CC[C@H](CO)Nc1nc(NCc2ccn(-c3cccc(Cl)c3)n2)c2ncn(C(C)C)c2n1
3. CCC(CO)Nc1nc(NCc2ccc(-c3ccccn3)cc2)c2ncn(C(C)C)c2n1 (centres unmarked) [CR8, reference compound]
4. CC[C@H](CO)Nc1nc(NCc2ccc(OCCO)cc2)c2ncn(C(C)C)c2n1

[566, 75, 24, 917]

Go through the items and report each one's DC50.
1. CC(C)n1cnc2c(NCc3ccc(-c4ccccn4)cc3)nc(NCc3c(Cl)cncc3Cl)nc21
2. COc1ccc(C)cc1N1C[C@@H](C(=O)Nc2nc3ccccc3[nH]2)CC1=O
3. Fc1ccc2[nH]c(CNc3nc(N4CCOCC4)nc4c(Br)cnn34)nc2c1F

1. 366
2. 436
3. 6
